system: MS2 coat protein; assay: apparent KD of MS2 coat protein, switch ON state; designed switch direction (-1 OFF switch, 1 ON switch): -1; higher = weaker reporter binding; conditions: FMN input: 0 or 200 uM; Eterna round: R93 (includes R88 designs)
Outcome measure: apparent KD of MS2 coat protein (nM)
Please state the figure in nM; there is no need to write the unit.

[
  {
    "Monomer sequence": "AGAAAGGUAGGAUAUACGAAAAAAAAGGGUAGAAAAAAAACACAUGAGGAUCACCCAUGUAGAAGGACCAAAGA [Mat - Exclusion 2 - Tesla mod - D31]",
    "apparent KD of MS2 coat protein, nM": 35.2
  },
  {
    "Monomer sequence": "AGAAAGGCAGGAUAUACAUGAGGAUCACCCAUGUUAAGAAAGACGGAAACGUCAAGAAGUAGAAGGGCCAAGAA [Shaken, but not stirred]",
    "apparent KD of MS2 coat protein, nM": 21.9
  },
  {
    "Monomer sequence": "AAAAAACAUGAGGAUCACCCAUGUGAGGAUAUGCAAAACCCAAAUAAAAAGAGAAAAAGCAGAAGGCACAACAA [wbt round 1 mod 3]",
    "apparent KD of MS2 coat protein, nM": 15.7
  }
]

Entry AGAAAGUCAGGAUAUACGAAAGUGCGAAAGCACAAAAGGGAACAUGAGGAUCACCCAUGUAGAAGGGACAAGAA [Diamond 77] — recorded apparent KD of MS2 coat protein = 91.4

Item: AUAGGCCUAGGAUAUACAUGAGGAUCACCCAUGUAAAUAAAUCGAUCAAAAUAAACGUGUAGAAGGAGGAAUAA [JR_Exc003_Sub205] | apparent KD of MS2 coat protein: 33.5

Entry AGAAAACAUGAGGAUCACCCAUGUCAGGAUAUCCUGCGGUGAUACACACCGCGUUGUCGGAGAAGGGACAGGGA [Tiesesmari] , apparent KD of MS2 coat protein reported as 65.6

apparent KD of MS2 coat protein in this record for AGAAAGUCAGGAUAUGUACAAAAUAAAAUAAAAAUAAAAGUACAGAAGGGACAUGAGGAUCACCCAUGUAAAGA [Mat - Exclusion 4 - Mayanna - D121] : 50.2

get_value(item= AACAUGUUAGGAUAUCAAAGAAAAGAAAAGAAAGAAAAGAAUGAGAAGGAACAUGAGGAUCACCCAUGUAAGAA [EteRNA is fun!] , readout=apparent KD of MS2 coat protein) returns 23

# apparent KD of MS2 coat protein (sequence: AACUGACAUGAGGAUCACCCAUGUCAGGAUAUGAUUUGACGAAAAAAAACACGUCAUAUCAGAAGGGACAUGGA [Design 85: Sub-opt X] ) is 23.7

Reported apparent KD of MS2 coat protein ( AACAGUACAGGAUAUACAUGAGGAUCACCCAUGUAAAAAAAGGGUGGCGUACCACGAAGUAGAAGGGUACUGGA [Moding Maslow revisited (73) 11] ) = 187

Data point: CUCAAGUGAGGAUAUACGAAUAGUAAGUAAGUAUAACAGACGUAGAAGGCACAUGAGGAUCACCCAUGUAAAUA [JR_Exc004_Sub303] ; apparent KD of MS2 coat protein = 36.2

Quick note, apparent KD of MS2 coat protein for AAAAAACAUGAGGAUCACCCAUGUAAGGAUAUGCUAGGAAAAAGAAAAAUAAAAACUAGCAGAAGGUACAUUAA [JL wbt mod 9] landed at 26.6

Entry under test: GAAGAACAUGAGGAUCACCCAUGUCAGGAUAUGCAGAAGGGAAUAAUAACCUCUGGAAGCAGAAGGGACAAGAA [Ex 1 May 48] . Its apparent KD of MS2 coat protein was 33.5

// sample AAGAACUGAGGAUAUACACAAGAAAAGAAAAGAAAGAAAGAACAUGAGGAUCACCCAUGUAGAAGGCGGAAGAA [Merhotepre Sobekhotep V] , its apparent KD of MS2 coat protein was 39.3

sequence AAUAAGUGAGGAUAUACUAAAGAAAUGAAAAGAAAUAAAGAACAUGAGGAUCACCCAUGUAGAAGGCACAAUAA [Sekheperenre] , apparent KD of MS2 coat protein observed: 24.4

apparent KD of MS2 coat protein in this record for AAAAAUGGAGGAUAUACAUGAGGAUCACCCAUGUGAGACCAAGAAAAAGAAAAAGAAAGUAGAAGGCCAUAAAA [Ex 3 May 24] : 24.5

// apparent KD of MS2 coat protein value for AUCUACCUAGGAUAUACAUGAGGAUCACCCAUGUACAGAUACAACUAGGGAAACACACGUAGAAGGAGGUAGAU [JR_Exc003_Sub1207] : 15.6

Lookup result for AGAAUACAUGAGGAUCACCCAUGUGAGGAUAUGUGAAGAAAAAGAAAAGAAAAGAAACACAGAAGGCACAAAAG [EX 1 May 17] ; measured apparent KD of MS2 coat protein: 29.7

Given item GGUUGGCGAGGAUAUACAUGAGGAUCACCCAUGUGAGAGAAAAUAGUGAGAAAGAAAAGUAGAAGGCGCUGACG [salish99-ex3-42] , the value recorded as its apparent KD of MS2 coat protein is 113

Item: AAAAAACAUGAGGAUCACCCAUGUCAGGAUAUUUCUAAAAAAAAAAAAAAAAAAAAUGAAAGAAGGGACAAAAA [excalibur 6] | apparent KD of MS2 coat protein: 58

Lab book: apparent KD of MS2 coat protein of AAAAAACAUGAGGAUCACCCAUGUCAGGAUAUCGUCAUAGAUGCAAAAGCAUCUAUGACGAGAAGGGACAUGCC [JL EX1 03] noted as 103

get_value(item= AAAAUACAUGAGGAUCACCCAUGUUAGGAUAUCGGAUAAAUAAAAUAAAAUAAAAUAACGAGAAGGGACAAUAA [Exclusion1 Malc#2] , readout=apparent KD of MS2 coat protein) returns 24.6

get_value(item= AAAAUGUCAGGAUAUGUACGAAAAAAUAAAAAAAUAAAAGUACAGAAGGGACAUGAGGAUCACCCAUGUCAGGG [EX4 392: Minimal 4] , readout=apparent KD of MS2 coat protein) returns 97.9

Reported apparent KD of MS2 coat protein for AAAAAGGCAGGAUAUGCAUACACACGAAAAAAAAAACUGGGACAUGAGGAUCACCCAUGUAGAAGGGCCAAAAA [Dora Explored 9 - Jieux - Exclusion 2] was 67.5

For AACUGACAUGAGGAUCACCCAUGUCAGGAUAUGAUAUGUAAAAAAAAAAAAAUACUUAUCAGAAGGGACAUGGG [Design 40: Sub-opt AB] the sequence record lists apparent KD of MS2 coat protein as 15.3
